Source: paper PMC4982440

Sequence of the target: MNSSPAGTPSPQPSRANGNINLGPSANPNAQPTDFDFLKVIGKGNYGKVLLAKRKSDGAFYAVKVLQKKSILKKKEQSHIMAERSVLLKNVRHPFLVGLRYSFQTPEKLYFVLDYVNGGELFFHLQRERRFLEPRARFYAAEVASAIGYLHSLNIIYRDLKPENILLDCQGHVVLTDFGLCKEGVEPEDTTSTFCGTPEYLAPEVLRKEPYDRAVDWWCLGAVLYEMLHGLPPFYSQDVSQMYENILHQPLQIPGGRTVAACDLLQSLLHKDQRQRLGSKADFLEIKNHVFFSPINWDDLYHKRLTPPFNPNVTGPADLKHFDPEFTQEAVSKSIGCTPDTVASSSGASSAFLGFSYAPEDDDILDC
measured.endpoint: IC50 (nM)
The response must be a number in nM with no trailing unit.

Please give the documented IC50 of Nc1n[nH]c2nc(-c3ccc(NS(=O)(=O)c4cccc(Cl)c4Cl)cc3)cnc12
2.8
